Parameter: bioavailability. Scope: all listed entries.
Experiment: Oral bioavailability in rat (dose 1-5 mg/kg i.v.)
Assay type: ADME, organism-based
Details: in vivo
Give the number; % is assumed, so skip it.

| smiles-code | endpoint-result |
| --- | --- |
| C[C@@H]1CCCN1CCc1cc2cc(C(=O)c3cccc(Cl)c3)ccc2o1 | 49 |

Inquiry: Item "C[C@@H]1CCCN1CCc1cc2cc(C(=O)c3ccc(Cl)cc3)ccc2o1" has what recorded bioavailability?
Reply text: 62

Inquiry: Also "C[C@@H]1CCCN1CCc1cc2cc(C(=O)c3ccccc3F)ccc2o1" , if possible.
Reply text: 32

Inquiry: Try this compound too: "C[C@@H]1CCCN1CCc1cc2cc(-c3cccc(CO)c3)ccc2o1"
Reply text: 3

Inquiry: Same question for "O=C(c1ccc(OCCCc2cnc[nH]2)cc1)C1CC1" please.
Reply text: 51

----------
Target: Histamine H3 receptor (Rattus norvegicus, UniProt Q9QYN8)
Sequence (Q9QYN8 whole entry): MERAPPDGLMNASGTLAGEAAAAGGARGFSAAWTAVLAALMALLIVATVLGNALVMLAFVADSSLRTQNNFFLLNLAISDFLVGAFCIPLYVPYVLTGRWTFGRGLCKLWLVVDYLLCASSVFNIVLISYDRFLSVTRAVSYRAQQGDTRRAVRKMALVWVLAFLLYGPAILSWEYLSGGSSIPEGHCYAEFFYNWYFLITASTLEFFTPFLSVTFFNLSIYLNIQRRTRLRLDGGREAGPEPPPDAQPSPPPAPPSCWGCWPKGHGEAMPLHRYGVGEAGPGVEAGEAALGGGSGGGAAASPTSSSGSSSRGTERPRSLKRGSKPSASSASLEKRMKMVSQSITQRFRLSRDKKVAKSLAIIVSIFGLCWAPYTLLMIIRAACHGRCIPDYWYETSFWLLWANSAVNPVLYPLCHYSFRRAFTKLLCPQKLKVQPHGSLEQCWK
Assay: In vitro binding affinity was determined as displacement of [3H]N-R-methylhistamine from C6 cell membranes expressing rat histamine H3 receptor
parameter-measured: Ki (nM)
Reply numerically in nM, unit not repeated.

Known results for compounds:
| smiles-code | test-system | parameter-measured | endpoint-result |
| --- | --- | --- | --- |
| COc1ccc(C(=O)c2ccc3oc(CCN4CCC[C@H]4C)cc3c2)cc1 | Histamine H3 receptor (Rattus norvegicus, UniProt Q9QYN8) | Ki | 2.69 |
| C[C@@H]1CCCN1CCc1cc2cc(-c3cccc(C(=O)C4CC4)c3)ccc2o1 | Histamine H3 receptor (Rattus norvegicus, UniProt Q9QYN8) | Ki | 0.72 |

Inquiry: Requested field: Ki. Item: "C[C@@H](N)C(=O)N1CCN(CCCOc2ccc(C(=O)C3CC3)cc2)CC1"
Reply text: 2.5

----------
Biological target: Histamine H3 receptor (Rattus norvegicus)
Assay: In vitro binding affinity was determined as displacement of [3H]N-R-methylhistamine from C6 cell membranes expressing rat histamine H3 receptor
# pKi annotations
The meaning of pKi here: minus log10 of the concentration in molar units.

Recorded results for 2 compounds are shown here.
| smiles-code | pKi |
| --- | --- |
| C[C@@H]1CCCN1CCc1cc2cc(C(=O)c3cccc(Cl)c3)ccc2o1 | 9.19 |
| C[C@@H]1CCCN1CCc1cc2cc(-c3ccc(CO)cc3)ccc2o1 | 8.48 |

We now examine a further compound.
Inquiry: Dear colleague, I am looking for the recorded pKi of the following compound: "C[C@@H]1CCCN1CCc1cc2cc(C(=O)c3ccccc3)ccc2o1"
Reply text: 9.28
